Please respond with reported koff for every item in the list.
- experimental.target: SARS-CoV-2 spike receptor-binding domain, Omicron BA.1 variant (amino acids 331-529), biotinylated (SARS-CoV-2, Omicron BA.1, G339D | S371L | S373P | S375F | K417N | N440K | G446S | S477N | T478K | E484A | …, biotin (RBD expression vector co-expressed with BirA-Flag, 100 μM biotin added))
- assay.details: BLI
- condition.description: both partners purified
Numeric answer only, unit s⁻¹ assumed.

Exercise: Specify measured koff for NIV-11 Fab (Fab, V domains shown) VH: QLVQSGPEVKKPGTSVKVSCKASGFTFYYSAVQWVRQARGQRLEWLGWMAVGSGKANYAQKFQERLTLTRDMSTSTAYMELSSLRSEDTAVYYCAAPNCTGGSCYDGFNLWGQGTVVTVSS VL: EIVLTQSPGTLSLSPGDRAILSCRASQTVNSNYLAWYQQKPGQAPRLLIYGTSSRATGIPDRFSGSGSGTDFTLTISRLEPEDFAVYYCQQYGSSPWLFGQGTKVEIK .
Solution: 0.00335

Exercise: Specify measured koff for NIV-8 Fab (Fab, V domains shown) VH: EVQLVESGGGVVQPGRSLRLSCAASGFKFSKFAMHWVRQAPGKGPEWVAVISYDGNQYHSADSVKGRFTISRDNSFNTLYLQMNSLGPEDTAVYYCARDGPDTSGYYANIYFDFWGQGTLVTVSS VL: QSVLTQPPSVSGAPGQRVTISCTGSSSNIGAGYDVHWYQQLPGRAPKLLIFDNNNRPSGVPDRFSGSKSGTSASLAITGLQTEDEAYYYCQSYDNSLILAVFGGGTKVTVL .
Solution: 0.00312

Exercise: Specify measured koff for NIV-13 Fab (Fab, V domains shown) VH: EVQLLESGGGLVQPGGSLRLSCAASGFTFSRYALSWVRQAPGKGLEWVSAISGAAITTYYADSVKGRFTISRDDSRNTLFMQMDSLRAEDTAVYYCAKGDYYDSSGYLAEYFPHWGQGTLVTVSS VL: SYELTQPPSVSVSPGQTARITCFADALPKQHAYWYQQKAGQAPVLVIFKDTERPSGIPKRFSGSRSGATVTLTISGVQAEDEADYYCQSTDISGVLFGGGTKLTVL .
Solution: 0.000248

Exercise: Specify measured koff for NIV-10 Fab (Fab, V domains shown) VH: EVQLVESGGGLVQPGGSLRLSCAASGFTFYSYWMTWVRQAPGKGLEWVANIKHDESESHYVDSVRGRFTISRDNAKNSVYLQMKGLRAEDTAVYYCARDGGYNILTAYYHAPSYWGQGTLVTVSS VL: QSALTQPASVSGSPGQSITISCTGTSSDVGGYNFVSWYRQYPGKAPQLMIYDVSRRPSGDSDRFSGSKSGNTASLTISGLQAEDEAEYHCSSYTGRSPYVVFGGGTKVTVL .
Solution: 0.0124
